# measurement-target: HLA-B*40:02
# procedure-summary: IEDB peptide-MHC binding, purified MHC/competitive/radioactivity; filed as Kd, often an IC50 or EC50 that approximates it; bounds were set here for any values at or beyond the usual limits of such assays
# measurement-context: source organism: Lassa virus Josiah
pKd: −log10 of the molar value.

sequence-text	measurement-target	pKd
AELLNNQFGT	HLA-B*40:02	5.95

====

# measurement-target: HLA-B*18:01
# procedure-summary: IEDB peptide-MHC binding, purified MHC/direct/fluorescence; filed as Kd, often an IC50 or EC50 that approximates it; bounds were set here for any values at or beyond the usual limits of such assays
# measurement-context: source organism: Giardia lamblia ATCC 50803
Entries and their Kd values follow.

sequence-text	Kd
VLLISDPGL	≥ 20 µM
WLKEKHEEL	≥ 20 µM

====

# measurement-target: HLA-A*23:01
# procedure-summary: IEDB peptide-MHC binding, purified MHC/competitive/radioactivity; filed as Kd, often an IC50 or EC50 that approximates it; bounds were set here for any values at or beyond the usual limits of such assays
# measurement-context: source organism: Mammarenavirus choriomeningitidis
pKd: −log10 of the molar value.

sequence-text	measurement-target	pKd
EGFMRKQKY	HLA-A*23:01	≤ 4.25

====

# measurement-target: HLA-B*44:03
# procedure-summary: IEDB peptide-MHC binding, purified MHC/competitive/radioactivity; filed as Kd, often an IC50 or EC50 that approximates it; bounds were set here for any values at or beyond the usual limits of such assays
# measurement-context: source organism: Hepatitis C virus (isolate 1)
pKd: −log10 of the molar value.
measurement-type: pKd

sequence-text	measurement-type	result
ATDALMTGY	pKd	≤ 4.11

====

# measurement-target: HLA-B*40:01
# procedure-summary: IEDB peptide-MHC binding, purified MHC/direct/fluorescence; filed as Kd, often an IC50 or EC50 that approximates it; bounds were set here for any values at or beyond the usual limits of such assays
# measurement-context: source organism: Mammarenavirus lassaense

sequence-text	Kd (µM)
EEFCDMLRL	0.255

====

Entries and their pKd values follow.
# measurement-target: HLA-A*68:01
# procedure-summary: IEDB peptide-MHC binding, purified MHC/competitive/radioactivity; filed as Kd, often an IC50 or EC50 that approximates it; bounds were set here for any values at or beyond the usual limits of such assays
# measurement-context: source organism: Dengue virus 4 Philippines/H241/1956
pKd: −log10 of the molar value.

sequence-text	pKd
DTSECPNERR	6.91
MSYTMCSGK	8.23
SISNITTATR	7.87
CVYNMMGKR	6.93
STMPLVMAWR	7.82

====

# measurement-target: HLA-B*58:01
# procedure-summary: IEDB peptide-MHC binding, purified MHC/competitive/radioactivity; filed as Kd, often an IC50 or EC50 that approximates it; bounds were set here for any values at or beyond the usual limits of such assays
# measurement-context: source organism: Dengue virus 1 Brazil/97-11/1997
Entries and their Kd values follow.

sequence-text	units-label	Kd
LLIMGQLTW	nM	11.1
LTSREVLLLT	nM	409
VSSWEEVPYL	nM	256

====

# measurement-target: HLA-B*46:01
# procedure-summary: IEDB peptide-MHC binding, purified MHC/competitive/fluorescence; filed as Kd, often an IC50 or EC50 that approximates it; bounds were set here for any values at or beyond the usual limits of such assays
# measurement-context: source organism: Homo sapiens

sequence-text	measurement-target	Kd
YSDNEMLTH	HLA-B*46:01	≥ 20 µM
SLFNWLWYE	HLA-B*46:01	≥ 20 µM

====

# measurement-target: HLA-A*02:06
# procedure-summary: IEDB peptide-MHC binding, purified MHC/competitive/fluorescence; filed as Kd, often an IC50 or EC50 that approximates it; bounds were set here for any values at or beyond the usual limits of such assays
# measurement-context: source organism: Salmonella enterica subsp. enterica serovar Typhi
measurement-type: Kd (nM)

sequence-text	units-label	quantitative-result
LSEEANWAF	nM	51.7

====

# measurement-target: HLA-A*26:01
# procedure-summary: IEDB peptide-MHC binding, purified MHC/direct/fluorescence; filed as Kd, often an IC50 or EC50 that approximates it; bounds were set here for any values at or beyond the usual limits of such assays
# measurement-context: source organism: Variola virus
pKd: −log10 of the molar value.

sequence-text	pKd
VIARTHTAL	≤ 4.70
EYYFRNEVF	≤ 4.70

====

# measurement-target: HLA-B*40:01
# procedure-summary: IEDB peptide-MHC binding, purified MHC/competitive/radioactivity; filed as Kd, often an IC50 or EC50 that approximates it; bounds were set here for any values at or beyond the usual limits of such assays
# measurement-context: source organism: Lassa virus Josiah

sequence-text	Kd (nM)
AELLNNQFGT	2320

====

# measurement-target: HLA-A*02:11
# procedure-summary: IEDB peptide-MHC binding, purified MHC/competitive/fluorescence; filed as Kd, often an IC50 or EC50 that approximates it; bounds were set here for any values at or beyond the usual limits of such assays
# measurement-context: source organism: Cryptosporidium parvum Iowa II
pKd: −log10 of the molar value.
Entries and their pKd values follow.

sequence-text	bound-type	pKd
KLYLRPWWH	≤	4.70
ERTDLFFPV	=	5.55

====

# measurement-target: HLA-A*68:01
# procedure-summary: IEDB peptide-MHC binding, purified MHC/competitive/radioactivity; filed as Kd, often an IC50 or EC50 that approximates it; bounds were set here for any values at or beyond the usual limits of such assays
# measurement-context: source organism: Dengue virus 2 Jamaica/1409/1983
pKd: −log10 of the molar value.

sequence-text	pKd
ESALNDTWK	7.04
MISRMLINR	7.64
ETCVYNMMGK	7.72
ATTFVTPMLR	7.79

====

# measurement-target: HLA-B*08:01
# procedure-summary: IEDB peptide-MHC binding, purified MHC/direct/fluorescence; filed as Kd, often an IC50 or EC50 that approximates it; bounds were set here for any values at or beyond the usual limits of such assays
# measurement-context: source organism: Cryptosporidium parvum
measurement-type: Kd

sequence-text	measurement-type	result
RLLRMNNEN	Kd	≥ 20 µM

====

# measurement-target: HLA-B*15:01
# procedure-summary: IEDB peptide-MHC binding, purified MHC/competitive/fluorescence; filed as Kd, often an IC50 or EC50 that approximates it; bounds were set here for any values at or beyond the usual limits of such assays
# measurement-context: source organism: Escherichia coli 536
Entries and their Kd values follow.

sequence-text	units-label	bound-type	Kd
QTDNDIWFW	nM	≥	20000
RQRAVRMVL	nM	=	354

====

# measurement-target: HLA-A*11:01
# procedure-summary: IEDB peptide-MHC binding, purified MHC/direct/fluorescence; filed as Kd, often an IC50 or EC50 that approximates it; bounds were set here for any values at or beyond the usual limits of such assays
# measurement-context: source organism: Coxiella burnetii
measurement-type: Kd

sequence-text	measurement-target	measurement-type	result
HEGDIVPLF	HLA-A*11:01	Kd	≥ 20 µM
VPPESVEAA	HLA-A*11:01	Kd	≥ 20 µM
IIGLLKIFR	HLA-A*11:01	Kd	0.225 µM

====

# measurement-target: HLA-A*02:11
# procedure-summary: IEDB peptide-MHC binding, purified MHC/direct/fluorescence; filed as Kd, often an IC50 or EC50 that approximates it; bounds were set here for any values at or beyond the usual limits of such assays
# measurement-context: source organism: Sapporo rat virus
pKd: −log10 of the molar value.

sequence-text	pKd
SLTECPTFL	≥ 9.00

====

# measurement-target: HLA-B*35:01
# procedure-summary: IEDB peptide-MHC binding, purified MHC/competitive/radioactivity; filed as Kd, often an IC50 or EC50 that approximates it; bounds were set here for any values at or beyond the usual limits of such assays
# measurement-context: source organism: Hepatitis C virus (isolate 1)
measurement-type: Kd

sequence-text	result
ATDALMTGY	≥ 36.4 µM

====

# measurement-target: HLA-B*40:01
# procedure-summary: IEDB peptide-MHC binding, purified MHC/direct/fluorescence; filed as Kd, often an IC50 or EC50 that approximates it; bounds were set here for any values at or beyond the usual limits of such assays
# measurement-context: source organism: Vibrio vulnificus
measurement-type: Kd

sequence-text	measurement-type	result
NGYRWQHQI	Kd	≥ 20 µM
GSEVPGFCH	Kd	≥ 20 µM

====

# measurement-target: HLA-A*24:03
# procedure-summary: IEDB peptide-MHC binding, purified MHC/direct/fluorescence; filed as Kd, often an IC50 or EC50 that approximates it; bounds were set here for any values at or beyond the usual limits of such assays
# measurement-context: source organism: Corynebacterium efficiens

sequence-text	Kd
KLGDQFGRK	≥ 20 µM

====

# measurement-target: HLA-A*31:01
# procedure-summary: IEDB peptide-MHC binding, purified MHC/competitive/fluorescence; filed as Kd, often an IC50 or EC50 that approximates it; bounds were set here for any values at or beyond the usual limits of such assays
# measurement-context: source organism: West Nile virus

sequence-text	units-label	Kd
GLYKSAPRR	nM	197
